assaySystem: PXR:RXRa (Homo sapiens, UniProt O75469;P19793 full;full)
Sequence (O75469 whole entry, chain 1 of 2): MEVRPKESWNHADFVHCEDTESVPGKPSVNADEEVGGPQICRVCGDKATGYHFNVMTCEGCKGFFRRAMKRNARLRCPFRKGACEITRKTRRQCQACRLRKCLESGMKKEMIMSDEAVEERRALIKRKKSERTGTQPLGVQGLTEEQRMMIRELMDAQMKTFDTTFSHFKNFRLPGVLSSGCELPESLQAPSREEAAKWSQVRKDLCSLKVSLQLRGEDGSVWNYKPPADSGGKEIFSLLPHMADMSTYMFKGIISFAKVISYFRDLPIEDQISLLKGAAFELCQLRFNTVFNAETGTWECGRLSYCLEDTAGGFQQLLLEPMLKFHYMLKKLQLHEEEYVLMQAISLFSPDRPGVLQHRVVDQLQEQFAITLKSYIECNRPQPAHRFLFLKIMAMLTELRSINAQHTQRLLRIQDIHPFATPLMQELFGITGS
Sequence (P19793 whole entry, chain 2 of 2): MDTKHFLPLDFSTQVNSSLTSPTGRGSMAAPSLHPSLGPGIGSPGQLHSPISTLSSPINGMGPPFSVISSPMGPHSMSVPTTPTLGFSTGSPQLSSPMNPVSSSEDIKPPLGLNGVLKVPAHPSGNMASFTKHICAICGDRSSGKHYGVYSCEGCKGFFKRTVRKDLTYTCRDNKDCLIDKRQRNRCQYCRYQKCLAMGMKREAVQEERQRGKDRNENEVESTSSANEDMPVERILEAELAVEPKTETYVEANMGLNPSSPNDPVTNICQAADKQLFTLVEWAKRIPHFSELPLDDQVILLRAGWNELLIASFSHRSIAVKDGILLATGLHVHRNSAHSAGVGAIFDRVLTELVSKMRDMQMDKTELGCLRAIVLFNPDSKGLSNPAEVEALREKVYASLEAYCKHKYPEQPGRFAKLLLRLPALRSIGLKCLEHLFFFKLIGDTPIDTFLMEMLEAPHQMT
procedureText: no ligand; PBM; 270 nM : 90 nM RXRa; PBS pH 7.4, 2% milk, 0.02% Triton X-100, 1 mM DTT, BSA, 0.4 mg/ml salmon testes DNA
experimentalSetup: tags: His kept;His cleaved; copies: 1;1; label: surface-attached array probe
valueType: binding signal

Recorded binding signal for NRC3_wobSeed141_DR5_C6G_o1 (dsDNA) DNA 1: GCAGTGAAAGTTCAGGACGAGGTAACGTAAAGCACGGCGATTGACAGCGTAGAATGAAGG DNA 2: CCTTCATTCTACGCTGTCAATCGCCGTGCTTTACGTTACCTCGTCCTGAACTTTCACTGC , please?
3 PBM z-score against 500 random probes
